test system: Plasmodium falciparum; assay: Calibr Malaria Delayed Death Assay SOP; type: functional, organism-based; set-up: scale not given: in the data most compounds retested in dose-response had high values; conditions: concentration 4.99e-06 (unit not given; other assays of the set use mol/L)
Screen size: about 38,000 compounds; about 1,200 (3.2%) showed an effect of 50% or more. The median lay at about -58%. This excerpt belongs to a sample that is enriched for strong results.
Quick list: Percent Effect per entry.
Write the number in % without appending the unit.

>  <molecule>
CNS(=O)(=O)c1cccc(C(C)NCc2ccc(F)cc2F)c1 (stereo not drawn)

>  <quantityMeasured>
Percent Effect

>  <measurement>
-6.511

$$$$
>  <molecule>
Cc1nnc(NCC2(c3ccccc3)CCC2)c(C#N)c1C

>  <quantityMeasured>
Percent Effect

>  <measurement>
-38.66

$$$$
>  <molecule>
CCN(CC)CCCNCC1CCOC(C)(C)C1 (stereo not drawn)

>  <quantityMeasured>
Percent Effect

>  <measurement>
-55.61

$$$$
>  <molecule>
CS(=O)(=O)NCC1CCCN(Cc2ccc(F)c3cccnc23)C1 (stereo not drawn)

>  <quantityMeasured>
Percent Effect

>  <measurement>
9.25

$$$$
>  <molecule>
CC(=O)NCC1CCCN(Cc2nc(Cc3ccccc3F)no2)C1 (stereo not drawn)

>  <quantityMeasured>
Percent Effect

>  <measurement>
-62.96

$$$$

Q: Entry CCOCC1CCN(C(=O)Nc2ccc3c(c2)CCCO3)C1 (stereo not drawn) has what Percent Effect?
A: -56.87

Q: Please look up its Percent Effect: COc1cccc(CNCc2cccc(Cl)c2)c1O
A: 84.59

Q: Param item = NC1(C(=O)NCC2CCCN(Cc3cccc4nonc34)C2)CCC1 (stereo not drawn) ; retrieve measured Percent Effect.
A: 38.45
